Where do the numbers come from? From ChEMBL document CHEMBL1125509.

Kindly state Max response for each of the entries shown.
System: Cholecystokinin receptor type A (Cavia porcellus)
Test: Evaluated in vitro for maximal stimulatory activity for PI hydrolysis relative to CCK-8 in guinea pig tissue
Where a SMILES comes first, the peptide text is derived from it. [ ]: non-standard residue; d: D form. The star is where a group is joined. Hydrocinnamoyl(4-OSO3H) = O=C(CCc1ccc(OS(=O)(=O)O)cc1)*; NMeL = CN[C@@H](CC(C)C)C(=O)O; Nle = CCCC[C@H](N)C(=O)O
Lab book: enter the figure in %, no units written.

q: Query: Max response; subject: CCCC[C@H](NC(=O)CCc1ccc(OS(=O)(=O)O)cc1)C(=O)NCC(=O)N[C@@H](Cc1c[nH]c2ccccc12)C(=O)N(C)[C@@H](CC(C)C)C(=O)N[C@@H](CC(=O)O)C(=O)N[C@@H](Cc1ccccc1)C(N)=O ({Hydrocinnamoyl(4-OSO3H)}-[Nle]GW[NMeL]DF-NH2)
a: 80

q: Record request: Max response value, item CCCC[C@H](NC(=O)[C@H](Cc1c[nH]c2ccccc12)NC(=O)CN1CC[C@H](NC(=O)CCc2ccc(OS(=O)(=O)O)cc2)C1=O)C(=O)N[C@@H](CC(=O)O)C(=O)N[C@@H](Cc1ccccc1)C(N)=O
a: 86

q: # input compound: CCCC[C@H](NC(=O)CCc1ccc(OS(=O)(=O)O)cc1)C(=O)NCC(=O)N[C@@H](Cc1c[nH]c2ccccc12)C(=O)N[C@@H](CCCC)C(=O)N[C@@H](CC(=O)O)C(=O)N[C@@H](Cc1ccccc1)C(N)=O ; wanted: its Max response
a: 100
